These measurements were taken from paper PMC6835155.

Target: LIMK2KD (Homo sapiens)
Construct: The cDNA coding for LIMK2 residues 330 to 632 was PCR amplified; His6 (N, cleaved yes); made in house; host or cells: baculovirus; Sf9 for virus, TriEx insect cells for expression
Sequence (P53671 330-632): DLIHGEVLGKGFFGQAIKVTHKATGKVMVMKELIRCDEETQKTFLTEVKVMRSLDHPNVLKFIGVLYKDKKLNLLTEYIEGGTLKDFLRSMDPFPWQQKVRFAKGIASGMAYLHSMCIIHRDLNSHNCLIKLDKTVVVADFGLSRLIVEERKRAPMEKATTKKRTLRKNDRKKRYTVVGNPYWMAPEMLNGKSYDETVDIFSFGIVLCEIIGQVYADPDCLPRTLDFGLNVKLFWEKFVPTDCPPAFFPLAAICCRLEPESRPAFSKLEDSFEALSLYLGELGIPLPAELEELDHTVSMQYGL
Assay: Differential (dynamic) scanning fluorimetry (DSF) assay, LIMK2KD
Format: binding
Conditions: LIMK2KD, compound 10 µM, single shot
readoutLabel: TM Shift LIMK2 (K)

Please review the entries below; each comes with its answer.
Cc1nc(Nc2n[nH]c3c2CN(C(=O)N[C@H](CN(C)C)c2ccccc2)C3(C)C)c2sccc2n1 | -0.4
NC(=O)Nc1sc(-c2ccc(F)cc2)cc1C(N)=O | 3.6

A. N#Cc1c(Oc2ccc(F)c(NC(=O)Cc3cccc(C(F)(F)F)c3)c2)ccc2nc(NC(=O)C3CC3)sc12
B. CC(C)N(CCC(=O)c1ccc2ccccc2c1)Cc1ccccc1.Cl [ZM 39923 HCl]
C. C=CC(=O)Nc1cccc(Oc2nc(Nc3ccc(N4CCN(C)CC4)cc3)ncc2Cl)c1
D. O=C(Cc1ccc(-c2ccc(OCCN3CCOCC3)cc2)cn1)NCc1ccccc1
E. CN(c1ccccc1CNc1nc(Nc2ccc3c(c2)CC(=O)N3)ncc1C(F)(F)F)S(C)(=O)=O
input: Order the records so the highest TM Shift LIMK2 (K) appears first and the lowest last. Answer with the labels in sequence, matching the requested order.
output: A, C, E, D, B
(A: 3.2 K, C: 1.5 K, E: 0.2 K, D: -0.3 K, B: -1.4 K)

###

Molecular target: LIMK2KD (Homo sapiens)
Construct: The cDNA coding for LIMK2 residues 330 to 632 was PCR amplified; His6 (N, cleaved yes); made in house; host or cells: baculovirus; Sf9 for virus, TriEx insect cells for expression
Assay: Differential (dynamic) scanning fluorimetry (DSF) assay, LIMK2KD
Format: binding
Conditions: LIMK2KD, compound 10 µM, single shot; read-out: TM Shift LIMK2 (K)
readoutLabel: ΔTm at 10 µM (°C)

Please review the following examples before continuing.
COc1ccc(S(=O)(=O)N(C(C)=O)c2ccccc2/C=C/c2cc[n+]([O-])cc2)cc1 | 1
O=P(O)(O)C(O)(Cn1ccnc1)P(=O)(O)O | 1.3

a. Nc1ncnc2c1c(COc1cccc(Cl)c1)nn2C1CCOCC1
b. Cc1[nH]c(/C=C2\C(=O)Nc3ccc(S(=O)(=O)N(C)c4cccc(Cl)c4)cc32)c(C)c1C(=O)N1CCN(C)CC1
c. Cc1ccc(NC(=O)c2ccc(CN3CCN(C)CC3)cc2)cc1Nc1nccc(-c2cccnc2)n1 [Imatinib (STI571), Imatinib]
d. CS(=O)(=O)CCNCc1ccc(-c2ccc3ncnc(Nc4ccc(OCc5cccc(F)c5)c(Cl)c4)c3c2)o1 [Lapatinib (GW-572016) Ditosylate, Lapatinib]
input: Sort (4 compounds) by ΔTm at 10 µM: min first. // respond by listing labels in the order requested
output: a, b, c, d

###

Target: LIMK1KD (Homo sapiens)
Construct: His6 (N, cleaved yes); made in house; host or cells: baculovirus; Sf9 for virus, TriEx insect cells for expression
Sequence (P53667 330-637): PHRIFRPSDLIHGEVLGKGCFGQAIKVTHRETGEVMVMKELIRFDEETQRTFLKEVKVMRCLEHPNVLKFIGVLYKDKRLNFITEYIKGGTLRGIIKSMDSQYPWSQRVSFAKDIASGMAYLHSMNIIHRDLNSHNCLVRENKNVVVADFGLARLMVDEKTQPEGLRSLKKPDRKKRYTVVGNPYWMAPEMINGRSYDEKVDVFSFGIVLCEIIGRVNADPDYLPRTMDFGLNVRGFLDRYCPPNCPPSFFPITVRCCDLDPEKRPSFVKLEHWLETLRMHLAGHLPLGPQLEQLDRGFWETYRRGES
Test: Differential (dynamic) scanning fluorimetry (DSF) assay, LIMK1KD
Type: binding
Details: 2 µM LIMK1KD, compound 10 µM, single shot; read-out: TM Shift LIMK1 (K)
readoutLabel: ΔTm at 10 µM (°C)

A. Cn1cc(-c2ccc3nnc(Sc4ccc5ncccc5c4)n3n2)cn1
B. CCCS(=O)(=O)Nc1ccc(F)c(C(=O)c2c[nH]c3ncc(Cl)cc23)c1F
C. FC(F)(F)c1ccc(/C=C/c2nc(COc3ccc(CCCCn4ccnn4)cc3)co2)cc1
D. Cc1[nH]c(/C=C2\C(=O)Nc3ccc(S(=O)(=O)N(C)c4cccc(Cl)c4)cc32)c(C)c1C(=O)N1CCN(C)CC1
input: Sort the entries above numerically by ΔTm at 10 µM, high end first. Answer by writing out the labels in the requested order.
output: B, D, C, A
